Data origin: ChEMBL document CHEMBL2062381

I'd be grateful if you could share measured selectivity ratio for these entries.
Assay: Selectivity index, ratio of IC50 for african green monkey Vero cells to IC50 for Plasmodium falciparum
Assay type: toxicity, cell-based
Condition Info: read-out: Ratio IC50
Form field (numeric): enter value without unit.

Look up selectivity ratio: "O=C(/C(=C/c1ccc(Cl)cc1Cl)Oc1ccc(/C=N/Nc2ccnc3cc(Cl)ccc23)cc1)c1ccc(Cl)cc1"
560

Using the record for "Cc1ccc(/C=C(\Oc2ccc(/C=N/Nc3ccnc4cc(Cl)ccc34)cc2)C(=O)c2ccc(Cl)cc2)cc1" , report its selectivity ratio.
1620

What selectivity ratio value was documented for this compound, "O=C(/C(=C/c1ccc(F)cc1)Oc1ccc(/C=N/Nc2ccnc3cc(Cl)ccc23)cc1)c1ccc(Cl)cc1" ?
6200

Consider the compound "O=C(/C(=C/c1ccc(Cl)cc1)Oc1ccc(/C=N/Nc2ccnc3cc(Cl)ccc23)cc1)c1ccc(Cl)cc1" and give its measured selectivity ratio.
1210

Query: selectivity ratio; subject: "O=C(/C(=C/c1ccc(F)cc1F)Oc1ccc(/C=N/Nc2ccnc3cc(Cl)ccc23)cc1)c1ccc(Cl)cc1"
1040

Record request: selectivity ratio value, item "COc1ccc(/C=C(\Oc2ccc(/C=N/Nc3ccnc4cc(Cl)ccc34)cc2)C(=O)c2ccc(Cl)cc2)cc1"
2050

Fill blank: measured selectivity ratio of the compound "COc1ccc(OC)c(/C=C(\Oc2ccc(/C=N/Nc3ccnc4cc(Cl)ccc34)cc2)C(=O)c2ccc(Cl)cc2)c1" is ____.
669

Quick one: selectivity ratio for "O=C(COc1ccc(/C=N/Nc2ccnc3cc(Cl)ccc23)cc1)c1ccc(Cl)cc1" ?
800
